B1: LOC100129726 (parent)
chain: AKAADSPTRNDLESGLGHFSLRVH

Variants of: B1
ASSAY NAME: protein stability index of a GFP-peptide fusion (GPS, HEK-293T) (PSI 1-6); higher = more stable;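 note: lentivirally expressed fusions sorted by FACS into six bins by GFP to DsRed ratio, PSI derived from sequencing read proportions per bin multiplied by bin number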
MEASUREMENT PARAMETERS: c terminus: a fixed tail appended
# protein stability index per entry
VALUE TYPE: protein stability index

SEQUENCE INPUT | ENDPOINT VALUE
AKAADSPTRNDWESGLGHFSLRVH [L12W] | 2.6
AKAADSPTRNDLEQGLGHFSLRVH [S14Q] | 2.94
AKAADSPTRNDLESKLGHFSLRVH [G15K] | 2.93
AKAADSPTRNDLESGLGHWSLRVH [F19W] | 2.76
AIAADSPTRNDLESGLGHFSLRVH [K2I] | 3.21
AKAADSPTRNDLESGLGHFSLRVI [H24I] | 1.9
AKAADSLTRNDLESGLGHFSLRVH [P7L] | 3.09
AKAADSPTRNDLESGLGWFSLRVH [H18W] | 1.59
AKAADSPTRNDLESGLGHFSLIVH [R22I] | 2.61
AKAADSPSRNDLESGLGHFSLRVH [T8S] | 2.74
AKAADSPTRNDLESGLGIFSLRVH [H18I] | 3.13
AKAADSPTRNDLESILGHFSLRVH [G15I] | 1.86
AKAADSPIRNDLESGLGHFSLRVH [T8I] | 2.45
AKAADIPTRNDLESGLGHFSLRVH [S6I] | 2.53
AKAADSPTRNDLESGPGHFSLRVH [L16P] | 3.12
AKAADAPTRNDLESGLGHFSLRVH [S6A] | 2.45
AKAADSPDRNDLESGLGHFSLRVH [T8D] | 3.31
AKAADSPTRNDLESGLGHFSDRVH [L21D] | 5.01
AKAADSPTRPDLESGLGHFSLRVH [N10P] | 4
AKAADSPTRNDLESGLGHFILRVH [S20I] | 1.48
AKAAVSPTRNDLESGLGHFSLRVH [D5V] | 2.54
AKAADSPTRNDLESGLGKFSLRVH [H18K] | 3.15
